Tested On: USP42 (UniProt Q9H9J4)
Sequence (Q9H9J4 whole entry, the tested form may be a part): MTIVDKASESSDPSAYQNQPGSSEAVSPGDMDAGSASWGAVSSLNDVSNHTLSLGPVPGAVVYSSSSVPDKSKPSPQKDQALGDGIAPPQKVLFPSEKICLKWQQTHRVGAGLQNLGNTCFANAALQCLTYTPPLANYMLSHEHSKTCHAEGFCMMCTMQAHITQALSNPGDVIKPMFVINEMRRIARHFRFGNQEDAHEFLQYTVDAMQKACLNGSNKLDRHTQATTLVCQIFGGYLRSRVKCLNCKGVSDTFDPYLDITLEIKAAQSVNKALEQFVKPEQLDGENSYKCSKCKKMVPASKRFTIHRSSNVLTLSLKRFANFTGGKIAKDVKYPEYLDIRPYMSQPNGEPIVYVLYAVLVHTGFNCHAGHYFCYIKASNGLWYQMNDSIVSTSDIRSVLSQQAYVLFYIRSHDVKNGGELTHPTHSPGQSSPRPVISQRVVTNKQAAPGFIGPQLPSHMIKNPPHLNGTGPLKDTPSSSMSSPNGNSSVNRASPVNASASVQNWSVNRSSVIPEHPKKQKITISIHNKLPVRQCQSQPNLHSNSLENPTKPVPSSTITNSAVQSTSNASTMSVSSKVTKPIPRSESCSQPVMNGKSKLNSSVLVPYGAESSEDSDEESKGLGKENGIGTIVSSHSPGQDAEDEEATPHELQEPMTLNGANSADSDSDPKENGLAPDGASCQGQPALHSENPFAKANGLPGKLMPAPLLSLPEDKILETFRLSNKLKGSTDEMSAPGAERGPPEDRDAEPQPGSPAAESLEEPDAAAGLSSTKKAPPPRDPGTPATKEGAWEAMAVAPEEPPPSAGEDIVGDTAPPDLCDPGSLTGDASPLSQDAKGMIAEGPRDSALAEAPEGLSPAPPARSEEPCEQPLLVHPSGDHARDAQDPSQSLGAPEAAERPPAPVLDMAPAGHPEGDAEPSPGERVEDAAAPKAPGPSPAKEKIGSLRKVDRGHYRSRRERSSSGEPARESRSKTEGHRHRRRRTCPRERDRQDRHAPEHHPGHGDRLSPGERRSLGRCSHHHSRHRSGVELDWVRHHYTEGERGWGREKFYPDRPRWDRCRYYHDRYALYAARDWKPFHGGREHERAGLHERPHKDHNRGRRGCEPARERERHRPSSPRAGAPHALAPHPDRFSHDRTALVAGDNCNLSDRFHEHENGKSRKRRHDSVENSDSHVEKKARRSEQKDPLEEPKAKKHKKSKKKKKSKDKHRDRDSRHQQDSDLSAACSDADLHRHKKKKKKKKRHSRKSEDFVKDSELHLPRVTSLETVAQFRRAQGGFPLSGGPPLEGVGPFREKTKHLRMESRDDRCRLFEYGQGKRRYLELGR
Assay Info: log2 ratio of Biotin-Ahx-Ub-VS probe labelling (fragment/DMSO); higher = less target engagement (more negative = stronger competition), active = hit call of the paper (q ≤ 0.05, log2 ratio ≤ -1)
Conditions: compound concentration: 200 uM; treatment time: 3 h
Classify by measured log2 ratio of Biotin-Ahx-Ub-VS probe labelling: MET if it is equal to or exceeds 0.1, NOT MET if it is smaller.

Field: example entries. Status: answers known.
## Input Is the recorded value of log2 ratio of Biotin-Ahx-Ub-VS probe labelling equal to or greater than 0.1 for this molecule? `Cc1ccc(CNC(=O)CCl)nc1C.Cl`
## Output MET

## Input How about this molecule: `NS(=O)(=O)c1ccc(Cl)c(NC(=O)CCl)c1`
## Output NOT MET

## Input Another molecule to look at: CC(NC(=O)CCl)c1cnn(C2CC2)c1 (stereo not drawn)
## Output MET

## Input Then this molecule: `Cc1c(C#N)c(NC(=O)CCl)n(Cc2ccco2)c1C`
## Output NOT MET

## Input `C#Cc1cccc(NC(=O)CCl)c1` , same question.
## Output MET

## Input Okay, and CC(NC(=O)CCl)c1cc2n(n1)CCCC2.Cl (stereo not drawn) ?
## Output MET

## Input Now consider `Cc1ncsc1CCNC(=O)CCl` and answer again.
## Output NOT MET

## Input Same for O=C(CCl)N1CCC(C(O)c2ccc(F)cc2)CC1 (stereo not drawn)
## Output MET

---
## Input Can `CC(C)n1nccc1NC(=O)CCl` be said to have log2 ratio of Biotin-Ahx-Ub-VS probe labelling at or above 0.1?
## Output NOT MET

## Input Another: CCC1c2ccsc2CCN1C(=O)CCl (stereo not drawn)
## Output MET

## Input // repeat for `Cc1cc(NC(=O)CCl)n(-c2ccccc2)n1` and report
## Output MET

## Input Param item: `Cc1ccc2nnc(CNC(=O)CCl)n2c1`
## Output MET
